Entries and their self-cleavage
B1: CPEB3 Ribozyme (parent)
chain: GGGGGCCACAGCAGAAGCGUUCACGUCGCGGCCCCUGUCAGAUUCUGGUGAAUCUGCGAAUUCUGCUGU

# Variants of: B1
# test-protocol: self-cleavage, relative activity (ratio to wild type); higher = more cleavage; co-transcriptional
The answer should be written as a number, with no unit following it.

sequence-string	obs-value
GGGGGCCACAGCAGAAGCGUUCACGUCGCGGCCCCUGUCAGAUACUGGUGAAUCUGCGAAGUCUGCUGU [U44A U61G]	0.645
GGGGGCCACAGCAGAAGCGUUCACGUCGCGGCCCCUGUCAGAUUCUGGCGAAUCUGCCAAUUCUGCUGU [U49C G58C]	0.993
GGGGGCCACAGCAGAAGCGUUCACGUCGCGGCCCCUGUCAGAUUAUGGUGAAUCUGCGAAUUCUACUGU [C45A G65A]	0.814
GGGGGCCACAGCAGAAGAGUUCACGUCGCGGCCCCUGUCAGAUUCUGGUGAAUCUGCGAAUUCUGUUGU [C18A C66U]	0.153
GGGGGCCACAGCAGAAGCGUUCACGUCGCGGCCCCUGUCAGAUGCUGGUGAAUCAGCGAAUUCUGCUGU [U44G U55A]	0.432

Give the measured self-cleavage for GGGGGCCACAGCAGAAGCGUUCACGUAGCGGCCCCUGUCAGAUUCUGGUGAAUCUGCGAAUUCUGCUUU [C27A G68U]
0.811

Give the measured self-cleavage for GGGCGCCACAGCAGAAGCGUUCACGUCGCGGCCCCUGUCAGAUUCUGGAGAAUCUGCGAAUUCUGCUGU [G4C U49A]
0.657

Give the measured self-cleavage for GGGGGCAACAGCAGAAGCGUUCACGUCGCGGCCCCAGUCAGAUUCUGGUGAAUCUGCGAAUUCUGCUGU [C7A U36A]
0.127

Give the measured self-cleavage for GGGGGUCACAGCAGAAGCGUUCACGUCGCGGCCCCUGUCAGAUUCUGGUGAAUCUGCGAAUUCUGCUGC [C6U U69C]
1.06
